system: MS2 coat protein; assay: apparent KD of MS2 coat protein; higher = weaker reporter binding; conditions: Eterna round: R107; input ligand: arginine 13.2 mM
Listed here: items and their measured apparent KD of MS2 coat protein.

{"Biosequence": "AGAAUAUAAUAUAUCAAAGGUAUAACCGAAGGAGCGCCGAAUAAGGCAGGUAGGUCGCGGAAACAUGAGGAUCACCCAUGUCCAU [Arginine A Same State; Euphoria Solution 2]", "apparent KD of MS2 coat protein": "19 nM"}
{"Biosequence": "ACAUGAGGAUCACCCAUGUGUGUAAAUCCUCGAGGACCGGUACGGCCGCCACUCGAUCGAGUGUAAGUUGAAUGUAACAUUCAAC [whbob_SS_trypto A_2s8]", "apparent KD of MS2 coat protein": "42.6 nM"}
{"Biosequence": "GAGCUGAUGUAGAGCGAAUAUUCGAGAGAUACCAGUACAGAAAUGUACCCUUGGCAGCUCAACUUUACAUGAGGAUCACCCAUGU [Ex Theophylline A 23]", "apparent KD of MS2 coat protein": "15 nM"}

----------
tested on: MS2 coat protein; experiment: apparent KD of MS2 coat protein; designed switch direction (-1 OFF switch, 1 ON switch): -1; higher = weaker reporter binding; conditions: Eterna round: R95; input ligand: microRNA oligo, concentration not stated
Please enter true (1) where apparent KD of MS2 coat protein is greater than or equal to 40 nM, and false (0) where it is lower.

{"Biosequence": "UCAAGUAUGUAGGAUAUCGAUGUCCUCGGACAUCGAGAAGGACGUACAUGAGGAUCACCCAUGUAACUUGCAUG [Exclusion 6 - B - 10:b] (puzzle: Exclusion 6)", "Label": "true (1)"}
{"Biosequence": "AGUCGGCGAGGAUAUACAUGAGGAUCACCCAUGUGAGAUAGUGCACGCGUACGUGUACGUAGAAGGCGCUGACA [Mat - Exclusion 3 - Mod of JL D94] (puzzle: Exclusion 3)", "Label": "false (0)"}
{"Biosequence": "UCAUGGUAGCAGGAUAUGCUAGAAAUUUUUUAUGCAGAAGGGCUUACAUGAGGAUCACCCAUGUGUUAGGUCUA [JR_E6_Sub070] (puzzle: Exclusion 6)", "Label": "true (1)"}
{"Biosequence": "AGUAACCGUCACGAAAGUGAUGGUUACACAAGUGUAAUAACAUGAGGAUCACCCAUGUCCUCAUUUGCUCGUUUUAU [Sensor 3 - 37] (puzzle: Sensor v3, turn-off variant 2)", "Label": "true (1)"}
{"Biosequence": "CCUUGACAUGAGGAUCACCCAUGUGAGGAUAUGAUGCGAUCGUCGAAAGACGAUAGCAUCAGAAGGCACAUAUG [Fiskers Ex 1 - 8] (puzzle: Exclusion 1)", "Label": "false (0)"}

----------
tested on: MS2 coat protein; test: apparent KD of MS2 coat protein; higher = weaker reporter binding; settings: Eterna round: R107; input ligand: none
Measured Parameter: apparent KD of MS2 coat protein (µM)

{"Biosequence": "GUGUACAUGAGGAUCACCCAUGUCGAGUUACGAGGACCGGUACGGCCGCCACUCGGCGGCUCGACACGGAUAGCGGUGCGUUGCU [Exclusion - Tryptophan A]", "System Name": "MS2 coat protein", "Measured Parameter": "apparent KD of MS2 coat protein", "Recorded Measurement": 0.0332}
{"Biosequence": "UCACAUGAGGAUCACCCAUGUAAAGUUGAAGGAGCGAUCAUUAGGUCAGGUAGGUCGCAACACAUGAGGAUCACCCAUGUUGUCC [DOUBLE!!! :-D]", "System Name": "MS2 coat protein", "Measured Parameter": "apparent KD of MS2 coat protein", "Recorded Measurement": 0.0408}
{"Biosequence": "UCGCUCUGGGUGAAUCCCAGAGAUGUGGAAGGAGCGGACGAAAGUCCAGGUAGGUCGCCAUCGAACAUGAGGAUCACCCAUGUAC [Same State - Arginine A (Freestyle 26)]", "System Name": "MS2 coat protein", "Measured Parameter": "apparent KD of MS2 coat protein", "Recorded Measurement": 0.046}
{"Biosequence": "AGACGAGAAGAGGUUUACCCAUGUACAGAAGGAGCGUCGUUGACGACAGGUAGGUCGCUGGAAACAUGAGGAUCACCCAUGUUGA [#06 Exclusion - Arginine A]", "System Name": "MS2 coat protein", "Measured Parameter": "apparent KD of MS2 coat protein", "Recorded Measurement": 0.0408}
{"Biosequence": "CCUAUGCAGUCGGCCGCCACUGUACAUGAGGAUCACCCAUGUUCUAAUAUAAUAAGAACUGAAAUCAGGACCGGGACUGUAUAGG [Ex Tryptophan B 2]", "System Name": "MS2 coat protein", "Measured Parameter": "apparent KD of MS2 coat protein", "Recorded Measurement": 0.0201}
{"Biosequence": "GCUGCCAUACGAAGGAGCGCUGGUGUAAUGAGGCGAACAUGAGGAUCACCCAUGUGGCAGAAGCAGGUAGGUCGCGUAUGGCAGC [EAB #15]", "System Name": "MS2 coat protein", "Measured Parameter": "apparent KD of MS2 coat protein", "Recorded Measurement": 0.0142}
{"Biosequence": "ACAUGAGGAUCACCCAUGUAGCCUAGGGAAGGAGCGUCGUAAGAGACAGGUAGGUCGCCCGCAUGUGGAUCACCCAUGUCGAGGG [SSArg A #11]", "System Name": "MS2 coat protein", "Measured Parameter": "apparent KD of MS2 coat protein", "Recorded Measurement": 0.0375}
{"Biosequence": "UGGGUAGCAUAGCUUGAUAGCUACACUGAAGGAGCGAGGAUAACCUCAGGUAGGUCGCAGACAUGAGGAUCACCCAUGUAGAUGG [Same State Arginine A GF18]", "System Name": "MS2 coat protein", "Measured Parameter": "apparent KD of MS2 coat protein", "Recorded Measurement": 0.186}
{"Biosequence": "GACAUGAGGAUCACCCAUGUUGACUAUGAAGGAGCGUCGGAAAUGACAGGUAGGUCGCAUAGUCGACCUUGUAUUUUGUGUGUUU [EAA #9]", "System Name": "MS2 coat protein", "Measured Parameter": "apparent KD of MS2 coat protein", "Recorded Measurement": 0.0104}
{"Biosequence": "UCGGGCAGAGCGGCCGCCACUGUUUGGCAUGCGGAUGAAGGAACAUGAGGAUCACCCAUGUAGAUUAGGACCGGGCUAGCGGAGA [sscsmullin]", "System Name": "MS2 coat protein", "Measured Parameter": "apparent KD of MS2 coat protein", "Recorded Measurement": 0.0172}
{"Biosequence": "UCAUGCAGGUCGGCCGCCACUACACACAUGAGGAUCACCCAUGUAGUUACUGGGUGAAGUGGCAGUAGGACCGGGACCUGCACAU [Brourdmod16]", "System Name": "MS2 coat protein", "Measured Parameter": "apparent KD of MS2 coat protein", "Recorded Measurement": 0.607}
{"Biosequence": "UUAAUCAUGGAUGAAAACAUUUAUGCAGAAGGAGCGUGAUAAAACACAGGUAGGUCGCUGAAGGGAACAUGAGGAUCACCCAUGU [AstrosSSArgA#17]", "System Name": "MS2 coat protein", "Measured Parameter": "apparent KD of MS2 coat protein", "Recorded Measurement": 0.0651}
